- STUDY SYSTEM: human GPBAR1 receptor (Homo sapiens, UniProt Q8TDU6)
- Construct: expressed in transfected cells
- ASSAY TEXT: functional cAMP assay in CHO-dhfr(minus) cells expressing human GPBAR1 receptors
- Format: cell-based
- CONDITIONS USED: human EC50, functional cAMP assay, 30 min at 30° C.
For each entry below, report its pEC50 value.
One number for each entry, as −log10 of the molar value.

Below: 3 compounds and their reported pEC50.
Entry Cc1cc(Cl)ccc1C(C/C(=N\O)c1ccc(=O)n(CCC(N)=O)c1)c1ccc(S(C)(=O)=O)cc1 (stereo not shown) [Example 344] ; pEC50 = 6.73

The compound identified as Cn1cc(/C(CC(c2ccc(C(=O)NCCS(C)(=O)=O)cc2)c2ccc(Cl)cc2F)=N/O)ccc1=O (stereo not shown) [Example 313] registered its pEC50 at 6.58

GET /value?item= Cc1ccccc1C(C/C(=N\O)c1ccc(=O)n(C)c1)c1ccc(Oc2cccc(C(=O)O)c2)cc1F (stereo not shown) [Example 235] &field=pEC50 returns 7.37

Others:
# pEC50 of Cc1cc(Cl)ccc1C(C/C(=N\O)c1ccc(=O)n(C)c1)c1ccc(Oc2ccc(Cl)c(C(=O)O)c2)c(F)c1 (stereo not shown) [Example 326] = 6.86

----------
- STUDY SYSTEM: human GPBAR1 receptor (Homo sapiens)
- Construct: expressed in transfected cells
- ASSAY TEXT: functional cAMP assay in CHO-dhfr(minus) cells expressing human GPBAR1 receptors
- Type: cell-based
- CONDITIONS USED: human EC50, functional cAMP assay, 30 min at 30° C.
EXPERIMENTAL ENDPOINT: EC50 (nM)
Numbers only, in nM.

For orientation, consider the following solved cases.
Entry under test: Cc1cc(C(CC(c2ccc(C#CCCC(=O)O)cc2)c2ccccc2C)=NO)ccn1 (racemic) [Example 111] . Its EC50 was 27

Reported EC50 ( Cc1cc(/C(CC(c2ccc(-c3ccc(C(=O)O)cc3)cc2)c2ncccc2C)=N/O)ccn1 (stereo not shown) [Example 117] ) = 102

The value of EC50 measured for the molecule Cc1ccccc1C(C/C(=N\O)c1ccc(=O)n(C)c1)c1ccc(C(=O)N(C)CCO)cc1 (stereo not shown) [Example 209] turned out to be 443

Documented EC50 of CN(C)c1ccc(C(CC(=NO)c2ccncc2)c2c[nH]c3ccccc23)cc1 (racemic) [Example 62] : 2710

Entry Cc1ccccc1[C@@H](C/C(=N\O)c1ccc(=O)n(C)c1)c1ccc(C2CCC(C(=O)O)CC2)cc1 (stereo partly shown) [Example 487] , EC50 reported as 656

Give EC50 for each of the items listed below.
1. Cc1cc(/C(C[C@H](c2ccc(C3CN(C(=O)OC(C)(C)C)C3)cc2)c2ccccc2C)=N/O)ccn1 [Example 481]
2. Cn1cc(/C(CC(c2cccc(C(=O)NCCO)c2)c2ccc(Cl)cc2F)=N/O)ccc1=O (stereo not shown) [Example 320]

Response line:
1: 153; 2: 3370

----------
- STUDY SYSTEM: human GPBAR1 receptor (Homo sapiens)
- Construct: expressed in transfected cells
- Sequence (Q8TDU6 1-330): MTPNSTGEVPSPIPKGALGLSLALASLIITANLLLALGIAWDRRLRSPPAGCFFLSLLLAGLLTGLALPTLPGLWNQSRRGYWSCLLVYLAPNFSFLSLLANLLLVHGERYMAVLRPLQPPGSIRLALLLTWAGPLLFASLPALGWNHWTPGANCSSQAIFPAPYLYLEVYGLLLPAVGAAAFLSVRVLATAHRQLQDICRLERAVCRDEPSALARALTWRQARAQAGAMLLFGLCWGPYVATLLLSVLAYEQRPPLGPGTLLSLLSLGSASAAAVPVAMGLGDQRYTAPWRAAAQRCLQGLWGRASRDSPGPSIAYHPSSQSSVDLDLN
- ASSAY TEXT: functional cAMP assay in CHO-dhfr(minus) cells expressing human GPBAR1 receptors
- Type: cell-based
- CONDITIONS USED: human EC50, functional cAMP assay, 30 min at 30° C.
EXPERIMENTAL ENDPOINT: EC50 (nM)
Numbers only, in nM.

Some solved cases for reference:
Per the record, Cc1cnc(F)cc1C(CC(c1ccccc1)c1ccccc1)=NO (racemic) has EC50 of 17

EC50 recorded for this compound, Cc1cc(Cl)ccc1C(C/C(=N\O)c1ccc(=O)n(C)c1)c1ccc(C(=O)NC[C@@H](O)CO)cc1 (stereo partly shown) , is 113

Field EC50 (entry Cc1cc(/C(CC(c2ccc(Br)cc2)c2cc(F)cc(F)c2)=N/O)ccn1 (stereo not shown) ) reads 27

# compound Cc1cc(/C(CC(c2ccc(-c3ccc(C(=O)O)c(F)c3)cc2)c2ccc(Cl)cc2F)=N/O)ccn1 (stereo not shown) ; its EC50 = 12

compound Cc1ccccc1C(C/C(=N\O)c1cc(Cl)nc(Cl)c1)c1ccc(Br)cc1 (stereo not shown) , EC50 observed: 184

For each listed entry, give its EC50.
1. Cc1cc(/C(CC(c2ccc(-c3ccc(C(=O)O)cc3)cc2)c2ccc(Cl)cc2C)=N/O)ccn1 (single isomer, unassigned) [Example 396]
2. Cc1ccccc1C(C/C(=N\O)c1ccncc1)c1ccc(N2CCN(S(C)(=O)=O)CC2)cc1 (stereo not shown)

Response line:
29
24

Here are 6 compounds. What values of EC50 were reported for them?
1. Cn1cc(/C(CC(c2ccc(C(=O)NC3CC3)c(F)c2)c2ccccc2Cl)=N/O)ccc1=O (stereo not shown)
2. Cc1cc(Cl)ccc1C(C/C(=N\O)c1ccc(=O)n(C)c1)c1ccc(CO)cc1 (stereo not shown)
3. Cc1cc(/C(C[C@H](c2ccc(N3CCOCC3)cc2)c2ccccc2C)=N/O)ccn1
4. Cc1cc(C(CC(c2ccc(C#CCO)cc2)c2ccccc2C)=NO)ccn1 (racemic)
5. Cc1cc(/C(CC(c2ccc(-c3ccc(C(=O)O)s3)cc2)c2ccc(Cl)cc2F)=N/O)ccn1 (stereo not shown)
6. O/N=C(\CC(c1ccccc1)c1cccc(Br)c1)c1ccncc1 (stereo not shown)

Response line:
1: 186; 2: 14; 3: 2; 4: 1; 5: 17; 6: 92

Please supply EC50 for each of the following items, keeping them in order.
1. COC(=O)c1ccc(-c2ccc(C(C/C(=N\O)c3ccnc(C)c3)c3ccc(Cl)cc3F)cc2)cc1Cl (stereo not shown)
2. Cc1ccccc1C(C/C(=N\O)c1cc(Cl)ccc1Cl)c1ccc(Br)cc1 (single isomer, unassigned; (-)) [Example 51]
3. Cc1ccccc1C(C/C(=N\O)c1cncc(Br)c1)c1cccc(Br)c1 (stereo not shown)

Response line:
416
933
4540

These data points were gathered from patent US8765730B2.
